Data credit: patent US20230090901A1

- target_of_assay: T1, L1 (DV1-GV4), soluble leucine zipper γδ TCR heterodimer of a delta variable 1 chain and a gamma variable 4 … (human)
- T1 construct: also called bt-L1; not shown: histidine tag/linker said to follow the zipper
- method_summary: SPR (Reichert 4SPR), L1 coupled to chip, IgG1 flowed, steady state 1:1 fit; experiment 2
reported_endpoint: pKd
Just the number, please; pKd means minus log10 of the concentration in mol/L.

Consider the following illustrative entries.
G4_12 (antibody, human IgG1, V domains shown, also called 1140_P01_G08; clone G4_12) VH: EVQLLESGGGLVQPGGSLRLSCAASGFTVSSNYMSWVRQAPGKGLEWVSVIYSGGSTYYADSVKGRFTISRHNSKNTLYLQMNSLRAEDTAVYYCARVANGDFLDYWGRGTLVTVSS VL: SQSVLTQPASVSGSPGQSITISCTGTSSDVGGYNFVSWYQQHPGKAPKLMIYEVTNRPSGVPDRFSGSKSGNTASLTISGLQAEDEADYYCSSHASPRVFGTGTKVTVLG :: 7.69
G4_3 (antibody, human IgG1, V domains shown, also called 1139_P01_A04; G4_03) VH: EVQLVESGGGLVQPGGSLRLSCAASGFTFSSYSMNWVRQAPGKGLEWVSSISSSSSYIYYADSVKGRFTISRDNSKNTLYLQMNSLRAEDTAVYYCARGGWLYDYWGQGTLVTVSS VL: DIQMTQSPSSLSASVGDRVTITCQASQDISNYLNWYQQKPGKAPKLLIYDASNLETGVPSRFSGSGSGTDFTLTISSLQPEDFATYFCQQSYSTPQTFGQGTKVDIKR :: 8.69
G4_18 (antibody, human IgG1, V domains shown, also called 1254_P01_H04; clone G4_18) VH: EVQLVESGAEVKKPGASVKVSCKASGYTFTGYYMHWVRQAPGQGLEWMGRINPNSGGTNYAQKFQGRVTMTRDASISTAYMELSRLRSDDTAVYYCARDLDLSSLDYWGRGTLVTVSS VL: SSYELTQPPSVTESPGQTARITCSGDALAKQYAYWYQQKPGQAPVLVIYRDSERPSEIPERFSGSSSGTTVTLTISGVQAEDEADYYCQSADSSGTYTVFGGGTKLTVLG :: 7.70

# evaluate next
Challenge: Look up and state reported pKd for G4_20 (antibody, human IgG1, V domains shown, also called 1254_P02_G02; clone G4_20) VH: QVQLVESGAEVKKPGASVKVSCKASGGTFSSYAISWVRQAPGQGLEWMGGIIPIFGTANYAQKFQGRVTITVDKSTRTAYMELSSLRSKDTAVYYCARGNSRSDAFDIWGQGTMVTVSS VL: SSYELTHPPSVSVSPGQTASITCSGDKLGDKFVSWYHQKPGQSPVLVIYQDSKRPSGIPERFSGSNSGNTATLTISGTRAMDEADYYCQAWDSSTVVFGGGTKLTVLG
Response given: 7.21
